# test.method.notes: Solubility analysis in PBS (Analysis Method B)
# Format: physicochemical
# assay.context: pH 7.4
Square brackets hold non-standard residues; d marks the D form. Peptide text beside a SMILES is read from it. dHis(τ-Bn) = N[C@H](Cc1cn(Cc2ccccc2)cn1)C(=O)O; pGlu = O=C1CC[C@@H](C(=O)O)N1
readout.label: Solubility grading
API note: the answer field is a bare number with no unit suffix.

INSERT INTO measurements (molecule, quantitative_readout) VALUES
  ('CCNC(=O)[C@@H]1CCCN1C(=O)[C@H](Cc1ccc(O)cc1)NC(=O)[C@H](CC(C)C)NC(=O)[C@@H](CC(C)C)NC(=O)[C@H](Cc1c[nH]cn1)NC(=O)[C@H](CO)NC(=O)[C@H](Cc1c[nH]c2ccccc12)NC(=O)[C@H](Cc1c[nH]cn1)NC(=O)[C@@H]1CCC(=O)N1 [Compound 48] ([pGlu]HWSH[dL]LYP-NHEt)', 2);

// switching to the query molecule
Exercise: Item CCNC(=O)[C@@H]1CCCN1C(=O)[C@H](Cc1ccc(O)cc1)NC(=O)[C@H](CC(C)C)NC(=O)[C@@H](Cc1cn(Cc2ccccc2)cn1)NC(=O)[C@H](Cc1c[nH]cn1)NC(=O)[C@H](CO)NC(=O)[C@H](Cc1c[nH]c2ccccc12)NC(=O)[C@H](Cc1c[nH]cn1)NC(=O)[C@@H]1CCC(=O)N1 [Compound 61] ([pGlu]HWSH[dHis(τ-Bn)]LYP-NHEt) has what recorded Solubility grading?
Key: 3

====

Quick list: Solubility grading per entry.
# test.method.notes: Solubility analysis in PBS (Analysis Method B)
# Format: physicochemical
# assay.context: pH 7.4
Square brackets hold non-standard residues; d marks the D form. Peptide text beside a SMILES is read from it. dHis(τ-Bn) = N[C@H](Cc1cn(Cc2ccccc2)cn1)C(=O)O; d2Nal = N[C@H](Cc1ccc2ccccc2c1)C(=O)O; pGlu = O=C1CC[C@@H](C(=O)O)N1
Form rule: numeric answer, no unit written next to it.

INSERT INTO results (compound, readout_label, quantitative_readout) VALUES
  ('CCNC(=O)[C@@H]1CCCN1C(=O)[C@H](Cc1ccc(O)cc1)NC(=O)[C@H](CC(C)C)NC(=O)[C@@H](Cc1cn(Cc2ccccc2)cn1)NC(=O)[C@H](Cc1ccc(O)cc1)NC(=O)[C@H](CO)NC(=O)[C@H](Cc1c[nH]c2ccccc12)NC(=O)[C@H](Cc1c[nH]cn1)NC(=O)[C@@H]1CCC(=O)N1 [Compound 59] ([pGlu]HWSY[dHis(τ-Bn)]LYP-NHEt)', 'Solubility grading', 4);

Exercise: Tell me the measured Solubility grading of CC(C)C[C@H](NC(=O)[C@@H](Cc1c[nH]c2ccccc12)NC(=O)[C@H](Cc1c[nH]cn1)NC(=O)[C@H](CO)NC(=O)[C@H](Cc1c[nH]c2ccccc12)NC(=O)[C@H](Cc1c[nH]cn1)NC(=O)[C@@H]1CCC(=O)N1)C(=O)N[C@@H](CCCNC(=N)N)C(=O)N1CCC[C@H]1C(=O)NCC(N)=O [Compound 68] ([pGlu]HWSH[dW]LRPG-NH2) , please.
Key: 1

Exercise: And the next one, CCNC(=O)[C@@H]1CCCN1C(=O)[C@H](Cc1ccc(O)cc1)NC(=O)[C@H](Cc1c[nH]c2ccccc12)NC(=O)[C@@H](Cc1cn(Cc2ccccc2)cn1)NC(=O)[C@H](Cc1ccc(O)cc1)NC(=O)[C@H](CO)NC(=O)[C@H](Cc1c[nH]c2ccccc12)NC(=O)[C@H](Cc1c[nH]cn1)NC(=O)[C@@H]1CCC(=O)N1 [Compound 62] ([pGlu]HWSY[dHis(τ-Bn)]WYP-NHEt) ?
Key: 5

Exercise: Note, next up: N=C(N)NCCC[C@H](NC(=O)[C@H](Cc1c[nH]c2ccccc12)NC(=O)[C@@H](Cc1ccc2ccccc2c1)NC(=O)[C@H](Cc1c[nH]cn1)NC(=O)[C@H](CO)NC(=O)[C@H](Cc1c[nH]c2ccccc12)NC(=O)[C@H](Cc1c[nH]cn1)NC(=O)[C@@H]1CCC(=O)N1)C(=O)N1CCC[C@H]1C(=O)NCC(N)=O [Compound 27] ([pGlu]HWSH[d2Nal]WRPG-NH2)
Key: 1

Exercise: And for CCNC(=O)[C@@H]1CCCN1C(=O)[C@H](CCCNC(=N)N)NC(=O)[C@H](CC(C)C)NC(=O)[C@@H](CC(C)C)NC(=O)[C@H](Cc1c[nH]cn1)NC(=O)[C@H](CO)NC(=O)[C@H](Cc1c[nH]c2ccccc12)NC(=O)[C@H](Cc1c[nH]cn1)NC(=O)[C@@H]1CCC(=O)N1 [Compound 42] ([pGlu]HWSH[dL]LRP-NHEt) ?
Key: 1

Exercise: Next compound up: CCNC(=O)[C@@H]1CCCN1C(=O)[C@H](CCCNC(=N)N)NC(=O)[C@H](Cc1c[nH]c2ccccc12)NC(=O)[C@@H](Cc1cn(Cc2ccccc2)cn1)NC(=O)[C@H](Cc1ccc(O)cc1)NC(=O)[C@H](CO)NC(=O)[C@H](Cc1c[nH]c2ccccc12)NC(=O)[C@H](Cc1c[nH]cn1)NC(=O)[C@@H]1CCC(=O)N1 [Compound 67] ([pGlu]HWSY[dHis(τ-Bn)]WRP-NHEt)
Key: 1

====

# subject.of.test: GnRHR (Homo sapiens, UniProt P30968)
# Sequence (P30968 1-328): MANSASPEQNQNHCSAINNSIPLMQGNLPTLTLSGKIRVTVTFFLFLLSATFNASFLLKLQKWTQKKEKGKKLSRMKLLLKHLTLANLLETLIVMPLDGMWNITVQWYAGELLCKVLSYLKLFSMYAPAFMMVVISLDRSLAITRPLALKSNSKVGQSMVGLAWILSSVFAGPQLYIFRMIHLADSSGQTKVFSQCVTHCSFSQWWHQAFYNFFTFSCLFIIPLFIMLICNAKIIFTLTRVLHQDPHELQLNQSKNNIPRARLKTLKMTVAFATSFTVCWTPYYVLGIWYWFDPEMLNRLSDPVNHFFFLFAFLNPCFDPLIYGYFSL
# assay.context: 1000.0
Square brackets hold non-standard residues; d marks the D form. Peptide text beside a SMILES is read from it. * marks the point of attachment. dHis(τ-Bn) = N[C@H](Cc1cn(Cc2ccccc2)cn1)C(=O)O; pGlu = O=C1CC[C@@H](C(=O)O)N1; tBu = CC(C)(C)*
readout.label: GNRHR Stimulation at 1 μM (percentage)
Give the value in percentage but do not write percentage after it.

Please review the following examples before continuing.
INSERT INTO assay_data (compound, readout_label, quantitative_readout) VALUES
  ('CCNC(=O)[C@@H]1CCCN1C(=O)[C@H](Cc1ccc(O)cc1)NC(=O)[C@H](CC(C)C)NC(=O)[C@@H](CC(C)C)NC(=O)[C@H](Cc1ccc(O)cc1)NC(=O)[C@H](CO)NC(=O)[C@H](Cc1c[nH]c2ccccc12)NC(=O)[C@H](Cc1c[nH]cn1)NC(=O)[C@@H]1CCC(=O)N1 [Compound 45] ([pGlu]HWSY[dL]LYP-NHEt)', 'GNRHR Stimulation at 1 μM', 105),
  ('CCNC(=O)[C@@H]1CCCN1C(=O)[C@H](CCCNC(=N)N)NC(=O)[C@H](Cc1c[nH]c2ccccc12)NC(=O)[C@@H](Cc1cn(Cc2ccccc2)cn1)NC(=O)[C@H](Cc1ccc(O)cc1)NC(=O)[C@H](CO)NC(=O)[C@H](Cc1c[nH]c2ccccc12)NC(=O)[C@H](Cc1c[nH]cn1)NC(=O)[C@@H]1CCC(=O)N1 [Compound 67] ([pGlu]HWSY[dHis(τ-Bn)]WRP-NHEt)', 'GNRHR Stimulation at 1 μM', 117),
  ('CCNC(=O)[C@@H]1CCCN1C(=O)[C@H](CCCNC(=N)N)NC(=O)[C@H](Cc1c[nH]c2ccccc12)NC(=O)[C@@H](Cc1cn(Cc2ccccc2)cn1)NC(=O)[C@H](Cc1c[nH]cn1)NC(=O)[C@H](CO)NC(=O)[C@H](Cc1c[nH]c2ccccc12)NC(=O)[C@H](Cc1c[nH]cn1)NC(=O)[C@@H]1CCC(=O)N1 [Compound 60] ([pGlu]HWSH[dHis(τ-Bn)]WRP-NHEt)', 'GNRHR Stimulation at 1 μM', 102),
  ('CCNC(=O)[C@@H]1CCCN1C(=O)[C@H](CCCNC(=N)N)NC(=O)[C@H](CC(C)C)NC(=O)[C@@H](Cc1cn(Cc2ccccc2)cn1)NC(=O)[C@H](Cc1c[nH]cn1)NC(=O)[C@H](CO)NC(=O)[C@H](Cc1c[nH]c2ccccc12)NC(=O)[C@H](Cc1c[nH]cn1)NC(=O)[C@@H]1CCC(=O)N1 [Compound 56] ([pGlu]HWSH[dHis(τ-Bn)]LRP-NHEt)', 'GNRHR Stimulation at 1 μM', 96),
  ('NC(=O)CNC(=O)[C@@H]1CCCN1C(=O)[C@H](Cc1ccc(O)cc1)NC(=O)[C@H](Cc1c[nH]c2ccccc12)NC(=O)[C@@H](Cc1c[nH]c2ccccc12)NC(=O)[C@H](Cc1ccc(O)cc1)NC(=O)[C@H](CO)NC(=O)[C@H](Cc1c[nH]c2ccccc12)NC(=O)[C@H](Cc1c[nH]cn1)NC(=O)[C@@H]1CCC(=O)N1 [Compound 64] ([pGlu]HWSY[dW]WYPG-NH2)', 'GNRHR Stimulation at 1 μM', 50),
  ('CCNC(=O)[C@@H]1CCCN1C(=O)[C@H](Cc1ccc(O)cc1)NC(=O)[C@H](Cc1c[nH]c2ccccc12)NC(=O)[C@@H](Cc1cn(Cc2ccccc2)cn1)NC(=O)[C@H](Cc1c[nH]cn1)NC(=O)[C@H](CO)NC(=O)[C@H](Cc1c[nH]c2ccccc12)NC(=O)[C@H](Cc1c[nH]cn1)NC(=O)[C@@H]1CCC(=O)N1 [Compound 63] ([pGlu]HWSH[dHis(τ-Bn)]WYP-NHEt)', 'GNRHR Stimulation at 1 μM', 77),
  ('CCNC(=O)[C@@H]1CCCN1C(=O)[C@H](Cc1ccc(O)cc1)NC(=O)[C@H](Cc1c[nH]c2ccccc12)NC(=O)[C@@H](COC(C)(C)C)NC(=O)[C@H](Cc1ccc(O)cc1)NC(=O)[C@H](CO)NC(=O)[C@H](Cc1c[nH]c2ccccc12)NC(=O)[C@H](Cc1c[nH]cn1)NC(=O)[C@@H]1CCC(=O)N1 [Compound 12] ([pGlu]HWSY[dS](tBu)WYP-NHEt)', 'GNRHR Stimulation at 1 μM', 80),
  ('N=C(N)NCCC[C@H](NC(=O)[C@H](Cc1c[nH]c2ccccc12)NC(=O)[C@@H](Cc1c[nH]c2ccccc12)NC(=O)[C@H](Cc1ccc(O)cc1)NC(=O)[C@H](CO)NC(=O)[C@H](Cc1c[nH]c2ccccc12)NC(=O)[C@H](Cc1c[nH]cn1)NC(=O)[C@@H]1CCC(=O)N1)C(=O)N1CCC[C@H]1C(=O)NCC(N)=O [Compound 66] ([pGlu]HWSY[dW]WRPG-NH2)', 'GNRHR Stimulation at 1 μM', 83),
  ('CCNC(=O)[C@@H]1CCCN1C(=O)[C@H](Cc1ccc(O)cc1)NC(=O)[C@H](CC(C)C)NC(=O)[C@@H](COC(C)(C)C)NC(=O)[C@H](Cc1ccc(O)cc1)NC(=O)[C@H](CO)NC(=O)[C@H](Cc1c[nH]c2ccccc12)NC(=O)[C@H](Cc1c[nH]cn1)NC(=O)[C@@H]1CCC(=O)N1 [Compound 9] ([pGlu]HWSY[dS](tBu)LYP-NHEt)', 'GNRHR Stimulation at 1 μM', 78),
  ('CCNC(=O)[C@@H]1CCCN1C(=O)[C@H](Cc1ccc(O)cc1)NC(=O)[C@H](CC(C)C)NC(=O)[C@@H](Cc1cn(Cc2ccccc2)cn1)NC(=O)[C@H](Cc1ccc(O)cc1)NC(=O)[C@H](CO)NC(=O)[C@H](Cc1c[nH]c2ccccc12)NC(=O)[C@H](Cc1c[nH]cn1)NC(=O)[C@@H]1CCC(=O)N1 [Compound 59] ([pGlu]HWSY[dHis(τ-Bn)]LYP-NHEt)', 'GNRHR Stimulation at 1 μM', 85);

Exercise: Look at this compound and give its reported GNRHR Stimulation at 1 μM. NC(=O)CNC(=O)[C@@H]1CCCN1C(=O)[C@H](Cc1ccc(O)cc1)NC(=O)[C@H](Cc1c[nH]c2ccccc12)NC(=O)[C@@H](Cc1c[nH]c2ccccc12)NC(=O)[C@H](Cc1c[nH]cn1)NC(=O)[C@H](CO)NC(=O)[C@H](Cc1c[nH]c2ccccc12)NC(=O)[C@H](Cc1c[nH]cn1)NC(=O)[C@@H]1CCC(=O)N1 [Compound 65] ([pGlu]HWSH[dW]WYPG-NH2)
Key: 72
